Target: Beta-3 adrenergic receptor (Homo sapiens, UniProt P13945)
Sequence (P13945 whole entry): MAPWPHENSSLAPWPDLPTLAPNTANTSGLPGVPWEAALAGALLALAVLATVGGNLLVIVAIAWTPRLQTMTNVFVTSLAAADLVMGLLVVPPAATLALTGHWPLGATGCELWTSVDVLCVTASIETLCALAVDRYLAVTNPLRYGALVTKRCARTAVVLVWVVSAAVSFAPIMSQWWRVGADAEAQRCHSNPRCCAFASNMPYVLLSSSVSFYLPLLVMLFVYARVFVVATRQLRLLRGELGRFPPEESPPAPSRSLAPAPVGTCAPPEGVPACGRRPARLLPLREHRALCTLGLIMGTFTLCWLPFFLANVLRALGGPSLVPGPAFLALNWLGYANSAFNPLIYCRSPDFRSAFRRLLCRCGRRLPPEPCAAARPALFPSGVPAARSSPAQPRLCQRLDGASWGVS
Test: 3H-CGP 12177 Whole Cell Binding Assay
Mark yes only when Kd stays strictly below 200 nM. Values equal to the cut-off are no.

1. CC(C)NCC(O)c1ccc2ccccc2c1 (stereo not drawn)
no

Task: Is 200 nM strictly greater than the compound's reported Kd? compound: Cc1ccc(Cl)c(OCC(O)CNC(C)(C)C)c1 (stereo not drawn)
Output: yes

Task: // next record CC(C)(C)NCC(O)COc1cccc2c1C[C@H](O)[C@H](O)C2 (stereo partly drawn) [Corgard]
Output: no

Task: // next record CC(C)(C)NC[C@H](O)COc1nsnc1N1CCOCC1 (racemic)
Output: yes

Task: // next record O=C(O)COc1ccc(OCCNC[C@@H](O)COc2ccccc2)cc1
Output: no

Task: // next record CC(C)(C)NCC(O)COc1cccc2[nH]c(=O)[nH]c12 (stereo not drawn)
Output: yes

Task: // next record OCc1cc(C(O)CNCCCCCCOCCCCc2ccccc2)ccc1O (stereo not drawn) [salmeterol xinafoate]
Output: no

Task: // next record CC(C)NC[C@H](O)COc1ccc(CCOCC2CC2)cc1
Output: no
